Assay: soluble on expression in E. coli; label from the status in PepcDB or PDB records
Reported Property: soluble on expression in E. coli

INSERT INTO measurements (sequence_text, assay_result) VALUES
  ('STNAEAVTVTNKQIIFPDYVTGFPKESDLKITTTTIDLRLPEGSTSVLVKNLYLSCDPYMRICMGKPDPLSSSLVPPYKTGVPIIGLGVSKVIDSGHPDYKKGDLLWGLVGWEEYSVITLTTYSHFKIEHTDVPLSYYTGLLGMPGMTAYAGFYEVCSPKKGETVFVSAASGAVGQLVGQFAKLMGCYVVGSAGSKEKVYLLKTKFGFDDAFNYKEEKDFSAALKRYFPEGIDIYFENVGGKMLDAVLINMKLHGRVAVCGMISQYNLVDPEGVHNLPTILYKRIQLQGFGVCDFYDKYPKFLDFVLPYIREGKITYVEDIAEGFESGPSALLGLFEGKNVGKQLFVVARE', 'soluble'),
  ('MRTVSHPTPLRRAPVQRRSAERLTRILDACADLLDEVGYDALSTRAVALRADVPIGSVYRFFGNKRQMADALAQRNLERYAERVTERLTEAGDGGWRGALDTVLDEYLAMKRTAPGFSLIDFGNQIPVGDRHAVPNHRVAERLTELLSGYLGRRPDDDLRRVFLVAVETADTLVQLAFRVAPDGDEKIIEEARELLRAYLGRVLD', 'soluble'),
  ('MFRVGILTVSDKGFRGERQDTTHLAIREVLAGGPFEVAAYELVPDEPPMIKKVLRLWADREGLDLILTNGGTGLAPRDRTPEATRELLDREVPGLAELMRLVGLRKTPMAALSRGVAGVRGRTLILNLPGSPKGARESLEAVLPVLPHALSLVTGKPWKEGHHE', 'soluble');
